- Tested on: K562
- ASSAY_OVERVIEW: NCI tumour cell line growth inhibition, 48 h
Active and inactive are the calls of the source. Cut-off read from the data, not from the text of the source: active = GI50 up to about 1.1 µM and inactive = higher.
ASSAY_METRIC: GI50

q: Please look at this compound and report its GI50: `C[N+](C)(CCNc1ccc(NCC[N+](C)(C)Cc2ccc([N+](=O)[O-])cc2)c2c1C(=O)c1ccccc1C2=O)Cc1ccc([N+](=O)[O-])cc1`
a: 70.3 µM (inactive)

q: Please look at this compound and report its GI50: `CC(C)c1ccc(O)c(Cc2cc(C(C)C)cc(Cc3cc(C(C)C)ccc3O)c2O)c1`
a: 2.23 µM (inactive)

q: Please look at this compound and report its GI50: CCN(CC)CC1CCCCN1CC(=O)N1c2ccccc2NC(=O)c2ccccc21 (centres undefined)
a: 79.3 µM (inactive)

q: Please look at this compound and report its GI50: `COc1cc2c(cc1C)[n+]([O-])c(C)c(C(=O)C/C(=N/NC(=O)C[N+](C)(C)C)C(=O)Nc1cccc(Cl)c1C)[n+]2[O-]`
a: > 100 µM (inactive)

====

- Tested on: UO-31
- ASSAY_OVERVIEW: NCI tumour cell line growth inhibition, 48 h
Activity calls are given as the source filed them. No stated cut-off is given here; in the data, active = GI50 up to about 1.1 µM and inactive = higher.
Choose the fitting class; nothing outside t = active, f = inactive is accepted.

q: Please indicate how the test categorized CC12CCC(CC1=O)C2(C)CCC(N)=O (stereo not given) .
a: f

q: Please indicate how the test categorized `c1ccc(C/C(=N\Nc2nc3ccccc3[nH]2)c2ccccn2)cc1` .
a: t

q: Please indicate how the test categorized `CCOC(=O)CC[C@H](NC(=O)c1ccc(CNc2nc3cc(C(F)(F)F)ccc3nc2C(=O)OCC)cc1)C(=O)OCC` .
a: f

q: Please indicate how the test categorized `N#Cc1c(-c2ccccc2)c(-c2ccccc2)cc2c(=O)c3ccc(Cl)cc3[nH]c12` .
a: f

q: Please indicate how the test categorized `BrCc1ccc2ccc3ccc(CBr)nc3c2n1` .
a: f

====

Kindly supply the reported GI50 values for the records listed here.
- System: SNB-78
- ASSAY_OVERVIEW: NCI tumour cell line growth inhibition, 48 h
Active and inactive are the calls of the source. Cut-off read from the data, not from the text of the source: active = GI50 up to about 1.1 µM and inactive = higher.

q: Please look at this molecule and report its GI50: O=[N+]([O-])c1ccc(Cl)c(C2CC(c3cccc4ccccc34)=Nc3ccccc3S2)c1 (stereo unspecified)
a: 26.5 µM (inactive)

q: Please look at this molecule and report its GI50: `CN(C)C=C1C(=O)N(C)C(=O)N(C)C1=O`
a: > 100 µM (inactive)

q: Please look at this molecule and report its GI50: `CCOC(=O)c1ccc(/N=C/c2ccc(N(CCC#N)S(=O)(=O)c3ccccc3)cc2C)cc1`
a: 33.2 µM (inactive)

q: Please look at this molecule and report its GI50: CC1=NN(c2ccccc2)C(=O)C1/N=N/c1ccc(Br)cc1C (stereo unspecified)
a: 79.6 µM (inactive)

q: Please look at this molecule and report its GI50: C=C1C(=O)OC2C1C(OC(=O)/C(=C/C)COC(C)=O)CC1(CO1)C1C(OC(=O)/C(=C/C)CO)C=C(C)C21 (stereo unspecified)
a: 1.65 µM (inactive)

q: Please look at this molecule and report its GI50: `O=c1oc2ccccc2[n+]([O-])c1-c1ccccc1`
a: > 100 µM (inactive)

q: Please look at this molecule and report its GI50: `O=C(/C=C1\NC(=O)c2ccccc2N1)c1ccncc1`
a: > 100 µM (inactive)

q: Please look at this molecule and report its GI50: `COc1ccc(C(=O)C(c2ccc(OCc3ccccc3)cc2)c2ccc(OCc3ccccc3)cc2)cc1`
a: > 100 µM (inactive)

q: Please look at this molecule and report its GI50: `CC[C@@]1(O)C(=O)OCc2c1cc1n(c2=O)Cc2cc3ccccc3nc2-1`
a: 0.333 µM (active)

q: Please look at this molecule and report its GI50: `CCNc1c(C(=O)N(CC)CC)c(=O)[nH]c2ncccc12`
a: > 100 µM (inactive)

q: Please look at this molecule and report its GI50: `CC(C)c1ccc(O)c(Cc2cc(C(C)C)cc(Cc3cc(C(C)C)ccc3O)c2O)c1`
a: 2.05 µM (inactive)

q: Please look at this molecule and report its GI50: `Cc1cc(=O)c2c([nH]1)NS(=O)(=O)NC2=O`
a: > 100 µM (inactive)

q: Please look at this molecule and report its GI50: `CCCN(CCC)c1c([N+](=O)[O-])cc(C(=O)N(CCO)CCO)cc1[N+](=O)[O-]`
a: > 100 µM (inactive)

q: Please look at this molecule and report its GI50: `O=C(/C=C/c1ccc(Cl)c(Cl)c1)c1ccc2ccccc2c1`
a: > 100 µM (inactive)

q: Please look at this molecule and report its GI50: `O=c1c2cc(Cl)ccc2sc2cccc(Cl)c12`
a: > 100 µM (inactive)

q: Please look at this molecule and report its GI50: `Cc1c2cc[n+](C)cc2c(C)c2c1[nH]c1ccc(O)c(OCC(F)(F)F)c12`
a: 1.16 µM (inactive)

q: Please look at this molecule and report its GI50: CC1CC(C[N+](=O)[O-])CC2(C1)OCCO2 (stereo unspecified)
a: > 100 µM (inactive)

q: Please look at this molecule and report its GI50: `O=C(c1ccc(Cl)cc1)N(C(=S)N1CCN(c2ccccc2)CC1)C1CCCCC1`
a: > 100 µM (inactive)

q: Please look at this molecule and report its GI50: O=C(CC1(O)C(=O)Nc2c(Cl)ccc(Cl)c21)c1ccco1 (stereo unspecified)
a: 51.8 µM (inactive)

q: Please look at this molecule and report its GI50: `CCOc1ccc(NC(=O)/C(=C/c2ccccc2)C(C)=O)cc1`
a: 13.4 µM (inactive)

q: Please look at this molecule and report its GI50: `N#Cc1ccccc1NC(=O)/C(=N\Nc1ccc([N+](=O)[O-])cc1)C1C(=O)NC(=O)NC1=O`
a: > 100 µM (inactive)

====

Entries with their measured GI50, system HCT-15:
Quick note: give the figure in µM, leave out the unit.

q: Give GI50 only, for COc1cc(C2c3cc4c(cc3C3OC[C@@H]2C3CO)OCO4)cc(OC)c1OC (stereo partly specified) , using HCT-15 data.
a: 23.3

q: Give GI50 only, for `COc1ccccc1CNC1=Nc2ccncc2S(=O)(=O)N1c1ccccc1` , using HCT-15 data.
a: 49.7

q: Give GI50 only, for `Cc1cccc(/N=C/C=C(\Cl)c2ccc3ccccc3c2)c1` , using HCT-15 data.
a: 11.7

====

- Test system: UACC-62
- ASSAY_OVERVIEW: NCI tumour cell line growth inhibition, 48 h
Activity calls are given as the source filed them. Cut-off read from the data, not from the text of the source: active = GI50 up to about 1.1 µM and inactive = higher.
Choose the fitting class; nothing outside true (1) for active, false (0) for inactive is accepted.

q: Please indicate how the test categorized `Cc1cc(C)c([O-])c(-[n+]2c(-c3ccccc3)cc(-c3ccccc3)cc2-c2ccccc2)c1` .
a: false (0)

q: Please indicate how the test categorized O=C(Nc1c(Cl)cc([N+](=O)[O-])cc1Cl)C(=O)C(C(=O)c1ccncc1)C1OC(=O)c2ccccc21 (stereo not drawn) .
a: false (0)

q: Please indicate how the test categorized `Cc1cc(N(C)C)c2ccccc2[n+]1CCCCCCCCCC[n+]1c(C)cc(N(C)C)c2ccccc21.[O-][Cl+3]([O-])([O-])[O-].[O-][Cl+3]([O-])([O-])[O-]` .
a: true (1)

q: Please indicate how the test categorized `CC[C@@H](/C=C\CCC(=O)C[C@H](O)CCC=C(C)C)O[Si](C(C)C)(C(C)C)C(C)C` .
a: false (0)

q: Please indicate how the test categorized `Cc1nc(SCC(=O)Nc2ccc(Cl)cc2)c2sc(=S)n(-c3ccccc3)c2n1` .
a: false (0)

q: Please indicate how the test categorized `Cc1c(C(=O)c2ccccc2)[n+]([O-])c2cc(Cl)c(Cl)cc2[n+]1[O-]` .
a: false (0)

q: Please indicate how the test categorized `NC(=O)NC(=O)c1cccc(C(=O)NC(N)=O)n1` .
a: false (0)

q: Please indicate how the test categorized CC[C@@]1(O)C(=O)OCc2c1cc1n(c2=O)Cc2cc3ccccc3nc2-1 [CAMPTOTHECIN] .
a: true (1)

====

Kindly supply the reported GI50 values for the records listed here.
- System: M14
- ASSAY_OVERVIEW: NCI tumour cell line growth inhibition, 48 h
Calls of active or inactive are those of the source. Rule as the data show it: active = GI50 up to about 1.1 µM and inactive = higher.

q: Please look at this compound and report its GI50: `COc1ccc(C(=O)C(c2ccc(OCc3ccccc3)cc2)c2ccc(OCc3ccccc3)cc2)cc1`
a: > 100 µM (inactive)

q: Please look at this compound and report its GI50: `O=C(c1ccc(Cl)cc1)N(C(=S)N1CCN(c2ccccc2)CC1)C1CCCCC1`
a: > 100 µM (inactive)

q: Please look at this compound and report its GI50: COC(=O)CC(C(C(=O)OC)C(=O)OC)N1C(=O)OCC1c1ccccc1 (centres undefined)
a: > 100 µM (inactive)

q: Please look at this compound and report its GI50: `CCOC(=O)C(=CN1CCNC1=S)C(=O)OCC`
a: > 100 µM (inactive)

q: Please look at this compound and report its GI50: `COC1=CC(=O)C[C@@H](C)[C@]12Oc1c(Cl)c(OC)cc(OC)c1C2=O`
a: 9.48 µM (inactive)

q: Please look at this compound and report its GI50: CC1=NN(c2ccccc2)C(=O)C1/N=N/c1ccc(Br)cc1C (centres undefined)
a: 90.4 µM (inactive)

q: Please look at this compound and report its GI50: `COc1ccc2cc3c4cc5c(cc4cc[n+]3cc2c1OC)OCO5`
a: 15.2 µM (inactive)

q: Please look at this compound and report its GI50: `Cc1cc(N(C)C)c2ccccc2[n+]1CCCCCCCCCC[n+]1c(C)cc(N(C)C)c2ccccc21.[O-][Cl+3]([O-])([O-])[O-].[O-][Cl+3]([O-])([O-])[O-]`
a: 2.33 µM (inactive)

q: Please look at this compound and report its GI50: `COC(=O)c1ccc(C=C(C#N)C#N)cc1`
a: 16.5 µM (inactive)
